Data origin, for the record: ChEMBL document CHEMBL2176891

- ASSAY METHOD TEXT: Cytotoxicity against BALB/c mouse splenocytes assessed as highest nontoxic concentration by measuring [3H]-thymidine incorporation after 24 hrs by beta-radiation counting
- Type: cell-based, Splenocyte
- CONDITIONS USED: mouse, splenocytes, read-out: Activity
ASSAY READOUT: MNTC at 24 h (µg/mL)
One number for each entry, in µg/mL.

Check out these entries, answers already filled in.
COMPOUND: CC1CS(=O)(=O)CCN1/N=C/c1ccc([N+](=O)[O-])o1 (stereo not given)
MNTC at 24 h [µg/mL]: 1
//
COMPOUND: C/C(COc1ccccc1)=N\N=C1\SC(C)C(=O)N1c1ccccc1 (racemic)
MNTC at 24 h [µg/mL]: 100
//
COMPOUND: CCC1S/C(=N/N=C(\C)COc2ccccc2)N(c2ccc(C)cc2)C1=O (racemic)
MNTC at 24 h [µg/mL]: 100
//
COMPOUND: C/C(COc1ccccc1)=N\Nc1nc(-c2ccncc2)cs1
MNTC at 24 h [µg/mL]: 100

// below: MNTC at 24 h requested for another compound
Please give the measured MNTC at 24 h for this compound: `C/C(COc1ccccc1)=N\Nc1nc(-c2ccc(Cl)c(Cl)c2)cs1`
25
